These entries and their values trace back to a melting point compilation (Tetko et al.; mined from patent text by program, amines drawn as free bases though some values may be those of a salt).

This listing pairs compounds with measured melting point.
measurementType: melting point

> print(dat)
                                    compound  measurementtype  measuredvalue
 1           CCOC(=O)c1c(CBr)cccc1S(N)(=O)=O    melting point  138 to 140 °C
 2         Cn1c(=O)[nH]c(N)c(NCc2ccccc2)c1=O    melting point  206 to 218 °C
 3            CNC(=O)N(C)c1nnc(SCc2ccccc2)s1    melting point  139 to 142 °C
 4                       Cc1ccc(C)c2c1CCC2=O    melting point          70 °C
 5  CCN1CCN(C(=O)NC(C(=O)NC2C(=O)N(OCc3ccccc3)C2C)c2ccccc2)C(=O)C1=O (centres undefined)    melting point  100 to 105 °C
 6              CC(C)(O)Cc1nc2cnc3ccccc3c2s1    melting point  155 to 157 °C
 7       CC(C)c1cc2c(cc1Oc1cnc(N)nc1N)OCCN2C    melting point  167 to 170 °C
 8               O=C(O)c1ccccc1Oc1ccc(Cl)cn1    melting point         159 °C
 9  COc1ccc(C(=O)Nc2cc(NC(=O)c3ccc(OCCCCl)cc3)ccc2C)cc1OC    melting point  186 to 187 °C
10   C=CCOc1cc2c(cc1C=CC)N(CC=C(C)C)C(=O)CC2    melting point    87 to 88 °C
11           O=Cc1cnn(-c2cccc(C(F)(F)F)c2)c1    melting point    80 to 82 °C
12  CN(C)c1nc(Nc2cc(C(=O)NC3CCC3)n[nH]2)c2occc2n1    melting point         250 °C
13           CCOC(=O)c1ncn2c1c(Cl)nc1ccccc12    melting point  128 to 130 °C
14    CCN1C(=O)c2cnc(-c3ccccc3)nc2Nc2ccccc21    melting point  198 to 199 °C
15  COc1cccc(N2CCN(C(=O)c3ccccc3C(c3ccc(O)cc3)c3ccc(O)cc3)CC2)c1    melting point  229 to 234 °C
16                CCCOc1n[nH]c(=O)n1C1CCCCC1    melting point  132 to 136 °C
17  COc1ccc(CN(C)CCCCc2ccc(NC(=O)c3cccc4c(=O)c5cccc(OC)c5[nH]c34)cc2)cc1OC    melting point         157 °C
18     COC1(OC)CCCCC1N=O (centres undefined)    melting point  108 to 120 °C
19  COC(=O)C(O)c1cc(F)cc(F)c1 (centres undefined)    melting point        61.8 °C
20  N=c1n(Cc2ccc(F)c(F)c2)c2ccc(Br)cc2n1Cc1ccc(F)c(F)c1    melting point  88 to 89.5 °C
21  CCc1c(C)c2c(OC)cc(-c3ccc(C(C)C)cc3)cc2oc1=O    melting point         115 °C
22  OCCN1C2C=C(c3ccc4ccccc4c3)CC1CC2 (centres undefined)    melting point  113 to 114 °C
23     COc1ccc(CNC(=O)c2cnc(SC)nc2NC(C)C)cc1    melting point  176 to 177 °C
24     O=C1CCC(Nc2nccc(-n3nnc4ccccc43)n2)CC1    melting point  205 to 206 °C
25      O=C(NC(=O)N1C(=O)Cc2ccccc21)C1CCCCC1    melting point  144 to 146 °C
26  CS(=O)(=O)c1ccc(C(CC2CCCC2)C(=O)Nc2ncc[nH]2)cc1[N+](=O)[O-] (centres undefined)    melting point  243 to 244 °C
27  CC1=C(c2cccc(C(F)(F)F)c2)n2ncc(C#N)c2N(C(=O)CCl)C1    melting point  178 to 182 °C
28  Nc1ccc(Oc2ccccc2-c2ccccc2Oc2ccc(N)cc2)cc1    melting point  157 to 158 °C
29  CC1(C)SC2C(NC(=O)Cc3ccccc3)C(=O)N2C1NC(=O)OCC(Cl)(Cl)Cl (centres undefined)    melting point  223 to 224 °C

----------
This listing pairs compounds with measured melting point.
measurementType: melting point

> print(dat)
                                    compound  measuredvalue
 1                     CC(=O)Nc1nc(CCCCl)cs1  110 to 112 °C
 2  CC(=N)Nc1ccc(CCc2nc(NC(C)=O)sc2Cc2ccc(S(C)(=O)=O)cc2)cc1  81.5 to 83 °C
 3  Cc1ccc(S(=O)(=O)NC2(C)c3ccccc3C=Cc3ccccc32)cc1  175 to 178 °C
 4      CCCn1cncc1CSc1ccc(NC(=O)C(F)(F)F)cc1    82 to 84 °C
 5  COC(=O)C(=O)Nc1ccc(C(CC2CCCC2)C(=O)Nc2nccs2)cc1 (stereo unspecified)    95 to 98 °C
 6  O=C(N1CCN(c2ccncc2Cl)CC1)N1CCN(S(=O)(=O)c2ccc(Br)cc2)CC1  194 to 195 °C
 7  Cc1ccc(OCC(O)CNC(C)(C)C)c([N+](=O)[O-])c1[N+](=O)[O-] (stereo unspecified)  104 to 106 °C
 8  CC(C)OC(=O)c1cc(NC(=O)c2ccccc2)c(F)cc1Cl  117 to 119 °C
 9  O=C(OCC1CC1)c1ncn2c1[C@@H]1CCN1C(=O)c1cc(F)ccc1-2  171 to 172 °C
10                Cc1nc(N)oc1-c1cccc2ccccc12  187 to 189 °C
11        C=CCOc1c(Cl)cc(C2=NNC(=O)CC2)cc1Cl         137 °C
12  CCCOc1cc(CCCOc2c(CC(=O)O)cccc2OC)n(Cc2ccccc2OC)n1    79 to 82 °C
13  O=C(O)c1cccc(-c2ncn(-c3ccc(N4CCCC4)cc3)n2)c1  263 to 265 °C
14  N#Cc1cccc(C2=Nc3cc(O)c(-c4cc(F)ccc4F)cc3NC(=O)C2)c1       > 250 °C
15  COc1cccc(-c2cc3c(Nc4cccc(Cl)c4)ncnc3[nH]2)c1  262 to 263 °C
16  COc1ccc(Cl)cc1C(=O)NC1Cc2cc(S(=O)(=O)NC(=S)NC(C)C)c(OC)cc2OC1(C)C (stereo unspecified)  201 to 202 °C
17             Cn1c(=Nc2cccnc2)sc2ncccc2c1=O         160 °C
18                      OCc1csc(-c2ccccc2)c1    92 to 93 °C
19  CCOC(=O)C=C(C)NC(=O)Nc1cc(C(=O)OC(C)C)c(Cl)cc1F  147 to 150 °C
20  Cc1nn(-c2c(Cl)cc(C(F)(F)F)cc2Cl)cc1C#C[Si](C)(C)C    76 to 78 °C
21  COc1ccc(CSc2nnc(-c3ccnc(NC(=O)OC(C)(C)C)c3)o2)cc1F  244 to 245 °C

----------
measurementType: melting point

> print(dat)
                                    compound  measuredvalue
 1  Cc1c(NC(=O)c2ccc(OCCC(C)C)cc2F)ccc2cc(CN3CCCC3)cnc12         131 °C
 2  CC=CC=CCOC(=O)C1=C(C)NC(C)=C(C(=O)OC)C1c1cccc([N+](=O)[O-])c1 (centres undefined)  135 to 136 °C
 3  CCN1C[C@@H](SCc2ccc(OC)cc2)C[C@H]1C(N)=O  124 to 125 °C
 4  CC(C)c1ccccc1S(=O)(=O)c1ccc(OCCCNC(C)(C)C)cc1         116 °C
 5  Cc1ccc(-c2ccc(OC3SCC(O)C(O)C3O)cn2)cc1 (centres undefined)         191 °C
 6             Oc1ccc(Sc2ccc(F)cc2)c2ccccc12  195 to 198 °C
 7        COC(=O)c1cc(O)c(N=Nc2ccccc2)c(O)c1  216 to 218 °C
 8   O=S1(=O)c2ccccc2Cc2ccc(-c3nnn[nH]3)cc21         233 °C
 9       CCOC(=O)c1cnn2c1c(S)nc1c(C)nn(C)c12  189 to 191 °C
10  CNC(=S)C1(c2cccnc2)CCCCS1=O (centres undefined)         228 °C
11  COc1cc2c(cc1OCc1ccccc1)CCN(Cc1cccc(Oc3ccccc3)c1)C2  111 to 112 °C
12  O=C(CC(NC(=O)COCc1ccccc1)c1ccccc1)Nc1n[nH]c(=S)s1 (centres undefined)  190 to 191 °C
13  C=CCOC(=O)C1=C(C)NC(C)=C(C(=O)OC)C1c1cc(Br)c(OC)c(OC)c1 (centres undefined)  123 to 124 °C
14  Cc1ccc([N+](=O)[O-])cc1Nc1ncc(-c2cccnc2)o1         252 °C
15                  CNC(=O)C(=NOC)c1ccccc1CO  100 to 102 °C
16       CCOC(=O)C(=O)Nc1c(Cl)cc(Cl)c(Cl)c1O         178 °C
17          Cc1cc(-c2ccc(Cl)cc2)nc2c(I)cnn12  147 to 148 °C
18  CC(=O)Oc1c(C)cc2c(c1C)C(C)CN2C(C)=O (centres undefined)  128 to 130 °C
19                         C=C(C)c1ccc(O)cc1  167 to 168 °C
20  CCC[C@H]1CC[C@H](CCCOc2ccc(C(=O)O[C@H](c3ccccc3)[C@H](OC(=O)c3ccc(OCCC[C@H]4CC[C@H](CCC)CC4)cc3)c3ccccc3)cc2)CC1          75 °C
21           O=Cc1ccc(-c2ccc(-c3ccccc3)s2)s1  119 to 121 °C
22  CNc1ccc2[nH]c3cc(-c4ccccc4Cl)c4c(c3c2c1)C(=O)NC4=O  182 to 184 °C
23  O=C(O)c1cn(-c2ccc(F)cc2)c(-c2ccc(O)cc2)cc1=O  185 to 193 °C
24             CCOC(=O)CNC(=O)Nc1ccc(OC)cc1F  158 to 159 °C
